# testedTarget: T1, Human ANGPTL4(26-406)-FLAG-His6-Avi (human, UniProt Q9BY76 24-406, biotin on the C-terminal Avi tag in the biotinylated preparations (immobilised form in SET, ELISA and Octet))
# T1 construct: also called full-length human ANGPTL4; hANGPTL4
# T1 sequence: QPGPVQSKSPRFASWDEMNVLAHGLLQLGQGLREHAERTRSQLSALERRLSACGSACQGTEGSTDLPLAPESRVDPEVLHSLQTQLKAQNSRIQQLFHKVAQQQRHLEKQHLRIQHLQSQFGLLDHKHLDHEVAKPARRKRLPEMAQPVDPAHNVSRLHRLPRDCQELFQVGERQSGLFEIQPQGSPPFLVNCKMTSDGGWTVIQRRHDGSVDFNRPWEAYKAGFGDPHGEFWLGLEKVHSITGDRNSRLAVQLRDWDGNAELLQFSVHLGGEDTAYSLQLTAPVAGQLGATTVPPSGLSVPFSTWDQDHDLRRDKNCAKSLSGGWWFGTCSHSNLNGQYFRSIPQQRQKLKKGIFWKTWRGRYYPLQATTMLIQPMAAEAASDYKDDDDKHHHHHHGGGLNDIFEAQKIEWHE
# procedureText: SET assay (solution equilibrium titration, MSD), IgG
Provide the recorded Kd for the entries that follow.
Give bare numbers, in nM.

Worked cases, Kd given:
- binder: "MOR022764 (antibody, human IgG1, lambda, V domains shown, human IgG1) VH: EVQLVQSGAEVKKPGESLKISCKGSGYSFSTYWISWVRQMPGKGLEWMGIIDPSQSDTRYSPSFQGQVTISADKSISTAYLQWSSLKASDTAMYYCARVYGYVYMDVWGQGTLVTVSS VL: SYELTQPLSVSVALGQTARITCSGDNLGKKYAYWYQQKPGQAPVLVIYDKTKRPSGIPERFSGSNSGNTATLTISRAQAGDEADYYCASYDWYSSSYVFGGGTKLTVLG"
  Kd (nM): 0.007
- binder: "MOR022766 (antibody, human IgG1, lambda, V domains shown, human IgG1) VH: EVQLVQSGAEVKKPGESLKISCKGSGYSFSTYWISWVRQMPGKGLEWMGIIDPSNTDTRYSPSFQGQVTISADKSISTAYLQWSSLKASDTAMYYCARVYGYVYMDVWGQGTLVTVSS VL: SYELTQPLSVSVALGQTARITCSGDNLGKKYAYWYQQKPGQAPVLVIYDKTKRPSGIPERFSGSNSGNTATLTISRAQAGDEADYYCASYDWYSSSYVFGGGTKLTVLG"
  Kd (nM): 0.005
- binder: "MOR021800 (antibody, human IgG1, lambda, V domains shown, human IgG1) VH: QVQLVQSGAEVKKPGESLKISCKGSGYSFSTYWISWVRQMPGKGLEWMGIIDPSNSDTRYSPSFQGQVTISADKSISTAYLQWSSLKASDTAMYYCARVYGYVYMDVWGQGTLVTVSS VL: DIELTQPPSVSVSPGQTASITCSGDNLGKKYAYWYQQKPGQAPVLVIYDKTKRPSGIPERFSGSNSGNTATLTISGTQAEDEADYYCASYDWYSSSYVFGGGTKLTVLG"
  Kd (nM): 0.017
- binder: "MOR022771 (antibody, human IgG1, kappa, V domains shown, human IgG1) VH: EVQLLESGGGLVQPGGSLRLSCAASGFTFSSYWMHWVRQAPGKGLEWVSGISYSGSSTNYADSVKGRFTISRDNSKNTLYLQMNSLRAEDTAVYYCARDSYIYDLHWGFDNWGQGTLVTVSS VL: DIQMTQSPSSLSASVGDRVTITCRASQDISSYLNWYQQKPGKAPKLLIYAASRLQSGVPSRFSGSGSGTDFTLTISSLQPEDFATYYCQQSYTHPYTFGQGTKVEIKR"
  Kd (nM): 0.029
- binder: "MOR022761 (antibody, human IgG1, lambda, V domains shown, human IgG1) VH: QVQLVQSGAEVKKPGSSVKVSCKASGGTFQSYAISWVRQAPGQGLEWMGGIIPLFGFANYAQKFQGRVTITADESTSTAYMELSSLRSEDTAVYYCARESYDPYAFDVWGQGTLVTVSS VL: SYELTQPLSVSVALGQTARITCSGDNLGKYSASWYQQKPGQAPVLVIHQDNNRPSGIPERFSGSNSGNTATLTISRAQAGDEADYYCASRAHSMHVVFGGGTKLTVLG"
  Kd (nM): 0.189

For every item in the list below, what is its measured Kd?
1. MOR021795 (antibody, human IgG1, lambda, V domains shown, human IgG1) VH: QVQLVQSGAEVKKPGSSVKVSCKASGGTFNSYAISWVRQAPGQGLEWMGGIIPLFGFANYAQKFQGRVTITADESTSTAYMELSSLRSEDTAVYYCARESYDPYAFDVWGQGTLVTVSS VL: DIELTQPPSVSVSPGQTASITCSGDNLGKYSASWYQQKPGQAPVLVIHQDNNRPSGIPERFSGSNSGNTATLTISGTQAEDEADYYCASRAHSMHVVFGGGTKLTVLG
2. MOR022769 (antibody, human IgG1, kappa, V domains shown, human IgG1) VH: EVQLLESGGGLVQPGGSLRLSCAASGFTFSSYYLHWVRQAPGKGLEWVSYISGDASSTYYADSVKGRFTISRDNSKNTLYLQMNSLRAEDTAVYYCARERSYAHDHWGQGTLVTVSS VL: DIQMTQSPSSLSASVGDRVTITCRASQDIYIDLNWYQQKPGKAPKLLIYAASKLQSGVPSRFSGSGSGTDFTLTISSLQPEDFATYYCQQGYFLPQTFGQGTKVEIKR
3. MOR022762 (antibody, human IgG1, lambda, V domains shown, human IgG1) VH: QVQLVQSGAEVKKPGSSVKVSCKASGGTFSSYAISWVRQAPGQGLEWMGGIIPLFGFANYAQKFQGRVTITADESTSTAYMELSSLRSEDTAVYYCARESYDPYAFDVWGQGTLVTVSS VL: SYELTQPLSVSVALGQTARITCSGDNLGKYSASWYQQKPGQAPVLVIHQDNNRPSGIPERFSGSNSGNTATLTISRAQAGDEADYYCASRAHSMHVVFGGGTKLTVLG
4. MOR022765 (antibody, human IgG1, lambda, V domains shown, human IgG1) VH: EVQLVQSGAEVKKPGESLKISCKGSGYSFSTYWISWVRQMPGKGLEWMGIIDPSSSDTRYSPSFQGQVTISADKSISTAYLQWSSLKASDTAMYYCARVYGYVYMDVWGQGTLVTVSS VL: SYELTQPLSVSVALGQTARITCSGDNLGKKYAYWYQQKPGQAPVLVIYDKTKRPSGIPERFSGSNSGNTATLTISRAQAGDEADYYCASYDWYSSSYVFGGGTKLTVLG
5. MOR021798 (antibody, human IgG1, lambda, V domains shown, human IgG1) VH: QVQLLESGGGLVQPGGSLRLSCAASGFTFSDYALHWVRQAPGKGLEWVSRISYMGSSTYYADSVKGRFTISRDNSKNTLYLQMNSLRAEDTAVYYCAREHYYSSPMGGVAVDNWGQGTLVTVSS VL: DIVLTQPPSVSGAPGQRVTISCSGSSSNIGYNTVSWYQQLPGTAPKLLIYSNNIRPSGVPDRFSGSKSGTSASLAITGLQAEDEADYYCSSWDFLIKSLVFGGGTKLTVLG

[0.036, 0.005, 0.107, 0.01, 0.093]
